This listing pairs molecules with measured Intrinsic activity.
# measurementTarget: Muscarinic acetylcholine receptor M1 (Homo sapiens)
# Sequence (whole entry): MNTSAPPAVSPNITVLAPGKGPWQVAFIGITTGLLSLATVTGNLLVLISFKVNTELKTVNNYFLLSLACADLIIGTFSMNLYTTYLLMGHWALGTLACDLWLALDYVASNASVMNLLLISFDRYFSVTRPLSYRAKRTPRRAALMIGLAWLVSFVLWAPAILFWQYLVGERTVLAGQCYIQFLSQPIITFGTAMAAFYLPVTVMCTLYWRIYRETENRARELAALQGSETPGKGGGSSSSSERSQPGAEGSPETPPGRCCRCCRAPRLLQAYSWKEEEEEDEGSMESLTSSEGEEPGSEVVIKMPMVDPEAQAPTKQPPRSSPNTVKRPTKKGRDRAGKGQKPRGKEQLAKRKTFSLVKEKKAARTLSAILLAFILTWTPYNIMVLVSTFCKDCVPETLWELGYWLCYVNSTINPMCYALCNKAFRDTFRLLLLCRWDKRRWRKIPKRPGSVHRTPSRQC
# assayRemarks: Intrinsic activity at human muscarinic M1 receptor expressed in CHO cells assessed as effect on acetylcholine-induced intracellular calcium level by FLIPR assay relative to acetylcholine
# Format: functional, cell-based
Give a bare numeral; the unit % is implied.

// worked examples, Intrinsic activity included
molecule: CC(NC(=O)c1ccccc1-c1cccc(Cl)c1)C1CCNCC1 (centres undefined)
unitsOfMeasure: %
Intrinsic activity: 26
//
molecule: O=C(NCC1CCNCC1)c1ccccc1-c1cc(Cl)ccc1Cl
unitsOfMeasure: %
Intrinsic activity: 100
//
molecule: CC1(CNC(=O)c2ccccc2-c2cccc(Cl)c2)CCNCC1
unitsOfMeasure: %
Intrinsic activity: 45
//
molecule: Cc1cc(Cl)cc(-c2ccccc2C(=O)NCC2CCNCC2)c1
unitsOfMeasure: %
Intrinsic activity: 52
//
molecule: O=C(NCC1CCNCC1)c1ccccc1-c1cccc(Cl)c1Cl
unitsOfMeasure: %
Intrinsic activity: 16

Item `O=C(NCC1CCNCC1)c1ccccc1-c1ccc(Cl)c(Cl)c1` was tested on Muscarinic acetylcholine receptor M1 (Homo sapiens); the reported Intrinsic activity is 59

Item `O=C(NCC1CCNCC1)c1ccccc1-c1cc(F)cc(Cl)c1` was tested on Muscarinic acetylcholine receptor M1 (Homo sapiens); the reported Intrinsic activity is 17

Item `CN1CCC(CNC(=O)c2ccccc2-c2cccc(Cl)c2)CC1` was tested on Muscarinic acetylcholine receptor M1 (Homo sapiens); the reported Intrinsic activity is 16

Item CC1CC(CNC(=O)c2ccccc2-c2cccc(Cl)c2)CCN1 (centres undefined) was tested on Muscarinic acetylcholine receptor M1 (Homo sapiens); the reported Intrinsic activity is 28
